MEASURED TARGET: human serotonin transporter (Homo sapiens, UniProt P31645)
Construct: purchased PerkinElmer; host or cells: HEK-293 cells
Sequence (P31645 whole entry): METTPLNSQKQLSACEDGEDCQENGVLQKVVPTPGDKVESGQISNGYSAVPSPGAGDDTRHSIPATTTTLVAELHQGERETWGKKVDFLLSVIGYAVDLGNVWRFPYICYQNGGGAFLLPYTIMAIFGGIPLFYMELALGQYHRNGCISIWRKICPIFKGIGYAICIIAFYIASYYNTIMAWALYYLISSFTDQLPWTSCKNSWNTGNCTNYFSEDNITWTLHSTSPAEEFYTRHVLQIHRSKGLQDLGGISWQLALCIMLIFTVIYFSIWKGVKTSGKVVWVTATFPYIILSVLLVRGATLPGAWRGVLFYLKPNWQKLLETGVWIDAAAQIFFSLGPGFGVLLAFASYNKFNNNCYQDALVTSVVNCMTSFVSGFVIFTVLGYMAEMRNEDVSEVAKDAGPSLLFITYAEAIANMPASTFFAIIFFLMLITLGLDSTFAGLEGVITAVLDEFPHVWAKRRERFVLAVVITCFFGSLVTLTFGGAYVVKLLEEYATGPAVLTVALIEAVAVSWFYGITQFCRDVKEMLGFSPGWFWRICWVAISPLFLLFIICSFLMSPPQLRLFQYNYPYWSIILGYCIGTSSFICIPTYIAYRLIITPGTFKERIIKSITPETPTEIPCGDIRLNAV
MEASUREMENT DESCRIPTION: Binding affinity for serotonin transporter ([3H]Imipramine)
pIC50: −log10 of the molar value.

SMILES STRING: Clc1cccc(N2CCN(CCCNc3ncnc4c3nc(-c3ccccc3)n4-c3ccccc3)CC2)c1Cl
pIC50: 7.19

---

Recorded IC50 by entry
MEASURED TARGET: human recombinant 5-HT2C receptor (Homo sapiens)
Construct: purchased PerkinElmer
Sequence (P28335 33-458): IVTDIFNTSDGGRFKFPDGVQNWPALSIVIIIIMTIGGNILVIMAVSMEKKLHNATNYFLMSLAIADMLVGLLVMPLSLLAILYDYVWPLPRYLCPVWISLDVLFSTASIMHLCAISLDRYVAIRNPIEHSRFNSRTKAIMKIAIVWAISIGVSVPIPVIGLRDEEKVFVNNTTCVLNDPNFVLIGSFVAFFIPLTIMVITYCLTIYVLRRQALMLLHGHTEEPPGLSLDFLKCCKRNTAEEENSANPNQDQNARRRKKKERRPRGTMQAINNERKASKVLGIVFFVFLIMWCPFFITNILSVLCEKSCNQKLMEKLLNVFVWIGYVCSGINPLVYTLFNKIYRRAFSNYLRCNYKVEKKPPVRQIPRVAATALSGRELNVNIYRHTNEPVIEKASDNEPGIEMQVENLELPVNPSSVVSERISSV
MEASUREMENT DESCRIPTION: Binding affinity for serotonin 5-HT2C receptor ([3H]Mesulergine)
REPORTED CONDITIONS: CHO-K1 membranes, 1.3 nM [3H]Mesulergine; read-out: binding affinity (IC50) 5-HT2C
Where a name gives a salt, the structure may show the parent alone.

MOLECULE: CCc1nc2c(NCCCN3CCN(c4cccc(C)c4C)CC3)ncnc2n1-c1ccc2c(c1)OCCO2 [Example 45]
IC50: 151 nM
--
MOLECULE: Cc1cccc(N2CCN(CCNc3ncnc4c3nc(C)n4-c3ccc(F)cc3)CC2)c1C [Example 55]
IC50: 129 nM
--
MOLECULE: CCc1nc2c(NCCCN3CCN(c4cccc(C)c4C)CC3)ncnc2n1-c1ccc(F)cc1 [Example 51]
IC50: 423 nM
--
MOLECULE: CSc1ccc(-n2c(C)nc3c(NCCN4CCN(c5cccc(C)c5C)CC4)ncnc32)cc1 [Example 85, hydrochloride]
IC50: 70 nM
--
MOLECULE: CCc1nc2c(NCC(O)CN3CCN(c4cccc(C)c4C)CC3)ncnc2n1-c1ccc2c(c1)OCO2 (stereo not shown) [Example 40]
IC50: 713 nM
--
MOLECULE: CSc1ccc(-n2c(C)nc3c(NCCCN4CCN(c5cccc(C)c5C)CC4)ncnc32)cc1.Cl [Example 86, hydrochloride]
IC50: 376 nM
--
MOLECULE: Cc1cccc(N2CCN(CCCNc3ncnc4c3nc(C)n4-c3ccc(C(F)(F)F)cc3)CC2)c1C [Example 76]
IC50: 453 nM
